Sourced from the supplement of paper PMC9170038

- Test system: MS2 coat protein
- experiment summary: apparent KD of MS2 coat protein, switch OFF state (with FMN for OFF switches, without FMN for ON switches); designed switch direction (-1 OFF switch, 1 ON switch): -1; higher = weaker reporter binding
- test context: FMN input: 0 or 200 uM; Eterna round: R93 (includes R88 designs)
readout name: apparent KD of MS2 coat protein (nM)
// note: answer is a bare numeric in nM

Challenge: Recorded apparent KD of MS2 coat protein of CAGUACUGAGGAUAUACAUGAGGAUCACCCAUGUGAUCAAGCUACGAAAGUAGCAAAAGUAGAAGGCAGUACUG [Ex3: 810] , please.
Response given: 56.7

Challenge: I have this sequence here, ACAGUUACAGGAUAUACAAGGGAAAAUAAAAAUAAACUUCAACAUGAGGAUCACCCAUGUAGAAGGGUAACUGA [Ex2 Design 199: Random 14] , and I need its recorded apparent KD of MS2 coat protein.
Response given: 112

Challenge: I am curious: what apparent KD of MS2 coat protein value has been reported for AAAUAGCAAGGAUAUACAUGAGGAUCACCCAUGUAAGGAUGGAAAGUAAUAGAAGAAAGUAGAAGGUGCAAAUA [Ex 3 Tesla 4] ?
Response given: 36

Challenge: // returns reported apparent KD of MS2 coat protein for input AAAAAGUGAGGAUAUACGCUGUGGAGUAGACACAACCAGUCGUAGAAGGCACAUGAGGAUCACCCAUGUCCAAA [EX4 Malc#19]
Response given: 49.6

Challenge: Which apparent KD of MS2 coat protein reading was recorded for the sequence AAGAAACAUGAGGAUCACCCAUGUCAGGAUAUGCAGGACUGACGAAAGUCAGUCCAAAGCAGAAGGGACUAGAA [8-pair stack] ?
Response given: 56.5

Challenge: Entry AAAAAACAUGAGGAUCACCCAUGUAAGGAUAUCGGAAAAGGAAAAAUAAAAAAGAAGACGAGAAGGUACACCAA [Mat - Exclusion 1 - Eli mod - D78] has what apparent KD of MS2 coat protein?
Response given: 24

Challenge: Reported apparent KD of MS2 coat protein, sequence AACAGUACAGGAUAUACAUGAGGAUCACCCAUGUGAAAAUUAAGUGGCGAACCACAAAGUAGAAGGGUACUGAA [Mat - Exclusion 3 - Eli mod - D56] : ____
Response given: 79.3

Challenge: Consider the sequence AGCUAGUCAGGAUAUACGAACAUGACAAAAGACGUGAAGGGACAUGAGGAUCACCCAUGUAGAAGGGACUAGCA [74%, Web mod - With 1 less U's] and give its measured apparent KD of MS2 coat protein.
Response given: 89.7

Challenge: What value of apparent KD of MS2 coat protein has been recorded for this entry: GAAAAGUCAGGAUAUGCAGACAAAGCAAAAAAGCAAUGUCUGCAGAAGGGACAUGAGGAUCACCCAUGUAAAAG [Mat - Exclusion 4 - Mayanna - D116]
Response given: 70.1

Challenge: What apparent KD of MS2 coat protein value was documented for this sequence, AAGAAGACAGGAUAUACAUGAGGAUCACCCAUGUAAAAGAAAGAAAAGGGAAAGAAAAGUAGAAGGGUCAAGAA [Menkheperure Thutmose IV] ?
Response given: 36.8

Challenge: Report apparent KD of MS2 coat protein for GGUUGUCGAGGAUAUACAUGAGGAUCACCCAUGUGAGAGAAAAAAGUGAGAAAGAAAAGUAGAAGGCGAUGACG [salish99-ex3-58] please.
Response given: 180

Challenge: For the sequence shown here, GGGUGGCGAGGAUAUACAUGAGGAUCACCCAUGUGAGAGAAAAAAGUGAGAAAGAAAAGUAGAAGGCGCUGCCG [salish99-ex3-56] , give the reported apparent KD of MS2 coat protein.
Response given: 329

Challenge: Could you share which apparent KD of MS2 coat protein value was measured for AAGAAGAUAGGAUAUACAAGAAAGAAAGAAAAGAAAAGAAAACAUGAGGAUCACCCAUGUAGAAGGAUCUAGAA [EteRNA is fun!] ?
Response given: 15.9
